Measured p53-positive nuclei, normalised accompanies every entry in the list below.
Target or test system: Cellular tumor antigen p53 (Homo sapiens)
Experimental details: nuclear p53 accumulation, HPV+ cells – imaging, p53-positive nuclei imaging, 24 h, 48 h (AID 1508601)
Test settings: 24/48 h, measured here: p53 positive nuclei at 24 h, Library stock concentration: 46 uM, stronger effect = higher value
About 85 (1%) of roughly 5,700 compounds were called active. Shown is part of a subset that was picked to be rich in actives.
Give the value, in units of %, as a plain number.

Nc1ccccc1NC(=O)c1ccc(CNC(=O)OCc2cccnc2)cc1 | 0.084
CNC(=O)c1ccc(Nc2ncc(C(F)(F)F)c(NCc3nccnc3N(C)S(C)(=O)=O)n2)cc1 | -0.00777
CCCCCc1ccc(C=CC(=O)Nc2ccccc2C(=O)O)cc1 | -0.087

In plain terms, Cc1cc(OCCCS(C)(=O)=O)cc(C)c1-c1cccc(COc2ccc3c(c2)OCC3CC(=O)O)c1 (centres undefined) has a documented p53-positive nuclei, normalised of -0.152

* * *

Measured nuclei count, normalised accompanies every entry in the list below.
Experimental details: nuclear p53 accumulation, HPV+ cells – imaging, p53-positive nuclei imaging, 24 h, 48 h (AID 1508601)
Test settings: 24/48 h, measured here: cell number at 48 h, Library stock concentration: 13.7 uM
About 85 (1%) of roughly 5,700 compounds were called active. For the sample, actives were picked, then their nearest neighbours and some compounds at random.
Give the value, in units of %, as a plain number.

// known answers, use as guide
CN(C)CCC(CSc1ccccc1)Nc1ccc(S(=O)(=O)NC(=O)c2ccc(N3CCN(Cc4ccccc4-c4ccc(Cl)cc4)CC3)cc2)cc1[N+](=O)[O-] (centres undefined) | 117
COc1ccc(N2C(=O)C(=Cc3ccc([N+](=O)[O-])s3)SC2=S)cc1 | 104
OC(c1cc(C(F)(F)F)nc2c(C(F)(F)F)cccc12)[C@H]1CCCCN1 (some centres undefined) | 103
CN(NC(=O)CC(=O)NN(C)C(=S)c1ccccc1)C(=S)c1ccccc1 | 110
C=C1C(=O)OC(CCCCCCCC)C1C(=O)O (centres undefined) | 110
CCOC(=O)c1sc(NC(=O)c2ccco2)c(SC#N)c1C | 103
COC(=O)C#Cc1ccc([N+](=O)[O-])cc1 | 112
OCC1OC(n2cnc3c2NC=NCC3O)CC1O (centres undefined) | 119

In plain terms, CC(=O)OC1C(=O)[C@]2(C)C(O)CC3OC[C@@]3(OC(C)=O)C2C(OC(=O)c2ccccc2)[C@]2(O)CC(OC(=O)C(O)C(NC(=O)c3ccccc3)c3ccccc3)C(C)=C1C2(C)C (some centres undefined) has a documented nuclei count, normalised of 29.7

* * *

Target or test system: Cellular tumor antigen p53 (Homo sapiens) (UniProt P04637)
Sequence (P04637 whole entry, looked up): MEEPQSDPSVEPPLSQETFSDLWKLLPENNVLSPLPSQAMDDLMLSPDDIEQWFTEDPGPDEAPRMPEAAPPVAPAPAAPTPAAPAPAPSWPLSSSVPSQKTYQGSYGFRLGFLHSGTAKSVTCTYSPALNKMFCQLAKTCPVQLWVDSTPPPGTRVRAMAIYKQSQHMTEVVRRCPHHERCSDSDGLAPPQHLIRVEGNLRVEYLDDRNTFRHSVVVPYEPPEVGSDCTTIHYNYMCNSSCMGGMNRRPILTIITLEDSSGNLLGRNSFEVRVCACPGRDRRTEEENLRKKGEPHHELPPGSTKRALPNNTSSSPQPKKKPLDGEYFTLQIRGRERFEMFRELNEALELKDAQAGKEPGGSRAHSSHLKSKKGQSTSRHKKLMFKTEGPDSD
Experimental details: nuclear p53 accumulation, HPV+ cells – imaging, p53-positive nuclei imaging, 24 h, 48 h (AID 1508601)
Test settings: 24/48 h, Library stock concentration: 80 uM
Screen size: about 5,700 compounds; about 85 (1%) were called active. Rule as the data show it: active = p53-positive nuclei above about 36% (passing the limit was not always enough); inactive = the rest. The sample as a whole holds a higher share of actives than the screen did.
I would appreciate it if you answered using one of these outcomes: True = active, False = inactive

Take a look at these entries with their results.
Nc1ccccc1NC(=O)c1ccc(CNC(=O)OCc2cccnc2)cc1 | False
CS(=O)(=O)N1CCN(Cc2cc3nc(-c4cccc5[nH]ncc45)nc(N4CCOCC4)c3s2)CC1 | False

Please look at the following compound next.
// outcome(item) with item = CSCCC(NC=O)C(=O)NC(CC(C)C)C(=O)NC(Cc1ccccc1)C(=O)O (stereo unspecified)
False

* * *

Measured p53-positive nuclei, normalised accompanies every entry in the list below.
Target or test system: Cellular tumor antigen p53 (Homo sapiens)
Experimental details: nuclear p53 accumulation, HPV+ cells – imaging, p53-positive nuclei imaging, 24 h, 48 h (AID 1508601)
Test settings: 24/48 h, measured here: p53 positive nuclei at 24 h, Library stock concentration: 10 mM, stronger effect = higher value
The whole screen tested about 5,700 compounds, of which about 85 (1%) were called active. Only a selection was taken, and actives are over-represented in it overall.
Give the value, in units of %, as a plain number.

O=C1CN2Cc3c(ccc(Cl)c3Cl)N=C2N1 | 6.76
CC(C)C(N)C(=O)NC(Cc1ccccc1)C(=O)O (stereo not given) | -0.118
O=C(Nc1ccc(-c2ccnc(Nc3ccc(N4CCOCC4)cc3)n2)cc1)C1CCCN1 (stereo not given) | -0.058
CCOC(=O)c1sc(NC(=O)c2ccco2)c(SC#N)c1C | 2.09
OCC1OC(n2cnc3c2NC=NCC3O)CC1O (stereo not given) | -0.148
CC(=O)NC(CSC(=S)NSc1ccc(SNC(=S)SCC(NC(C)=O)C(=O)O)cc1)C(=O)O (stereo not given) | 16
Fc1cc(-c2ccnc(Nc3ccc(-n4cnc(N5CCOCC5)n4)cc3)n2)cc(N2CCOCC2)c1 | 15.7
O=C(Cc1ccc(-c2ccc(OCCN3CCOCC3)cc2)cn1)NCc1ccccc1 | 1.31
O=C(O)CCCC=CCC1C(O)CC(O)C1C=CC(O)COc1cccc(Cl)c1 (stereo not given) | -0.0194

Entry Cc1cc(OCc2nnc(SC3CCCC3)n2-c2cccnc2)ccc1-c1ccc(S(C)(=O)=O)cc1 , Cellular tumor antigen p53 (Homo sapiens) data, p53-positive nuclei, normalised value: 46.4

* * *

Measured p53-positive nuclei, normalised accompanies every entry in the list below.
Target or test system: Cellular tumor antigen p53 (Homo sapiens) (UniProt P04637)
Experimental details: nuclear p53 accumulation, HPV+ cells – imaging, p53-positive nuclei imaging, 24 h, 48 h (AID 1508601)
Test settings: 24/48 h, Library stock concentration: 123 uM, stronger effect = higher value
Out of some 5,700 compounds screened, about 85 (1%) were called active. The sample as a whole holds a higher share of actives than the screen did.
Give the value, in units of %, as a plain number.

// known answers, use as guide
CC(=O)OC1C(=O)[C@]2(C)C(O)CC3OC[C@@]3(OC(C)=O)C2C(OC(=O)c2ccccc2)[C@]2(O)CC(OC(=O)C(O)C(NC(=O)c3ccccc3)c3ccccc3)C(C)=C1C2(C)C (some centres undefined) | 1.56
OCC1OC(n2cnc3c2NC=NCC3O)CC1O (centres undefined) | 0.029
N#CSc1cc(SC#N)c(N)nc1N | -0.098

// next entry
In plain terms, NC(=O)c1ncn(C2OC(CO)C(O)C2O)c1O (centres undefined) has a documented p53-positive nuclei, normalised of -0.128

* * *

Target or test system: Cellular tumor antigen p53 (Homo sapiens) (UniProt P04637)
Experimental details: nuclear p53 accumulation, HPV+ cells – imaging, p53-positive nuclei imaging, 24 h, 48 h (AID 1508601)
Test settings: 24/48 h, Library stock concentration: 2 mM, stronger effect = higher value
The campaign covered roughly 5,700 compounds. About 85 (1%) were called active. The sample as a whole holds a higher share of actives than the screen did.
Outcome measure: p53-positive nuclei, normalised (%)
Give the value, in units of %, as a plain number.

Fc1cc(-c2ccnc(Nc3ccc(-n4cnc(N5CCOCC5)n4)cc3)n2)cc(N2CCOCC2)c1 | 90.9
CC(NC(=O)c1cc(Cl)ccc1Oc1ccc(F)cc1)c1ccc(C(=O)O)cc1 (centres undefined) | -0.0948
CCC(C)C(NC(=O)C(C(C)CC)N(C)C(C)=O)C(=O)NC(C(=O)NC(CC(C)C)C(=O)[C@@]1(C)CO1)C(C)O (some centres undefined) | 107

In plain terms, CCCCc1nc2cc(C=CC(=O)NO)ccc2n1CCN(CC)CC has a documented p53-positive nuclei, normalised of 17.7

In plain terms, CCCCc1ccc(N=CNO)c(C)c1 has a documented p53-positive nuclei, normalised of -0.128

In plain terms, COc1ccc(N(C(=O)Nc2c(C)cccc2C)c2cc(Nc3ccc(N4CCN(C)CC4)cc3OC)ncn2)c(OC)c1 has a documented p53-positive nuclei, normalised of -0.0629

* * *

Target or test system: Cellular tumor antigen p53 (Homo sapiens) (UniProt P04637)
Experimental details: nuclear p53 accumulation, HPV+ cells – imaging, p53-positive nuclei imaging, 24 h, 48 h (AID 1508601)
Test settings: 24/48 h, Library stock concentration: 3.33 mM
Screen size: about 5,700 compounds; about 85 (1%) were called active. No stated cut-off is given here; in the data, active means p53-positive nuclei above about 36% (passing the limit was not always enough); inactive means the rest. The sample holds actives, similar compounds and a random draw of the others, so the mix is not that of the screen.
I would appreciate it if you answered using one of these outcomes: 1.0 = active, 0.0 = inactive

CN(C)CCC(CSc1ccccc1)Nc1ccc(S(=O)(=O)NC(=O)c2ccc(N3CCN(Cc4ccccc4-c4ccc(Cl)cc4)CC3)cc2)cc1[N+](=O)[O-] (stereo not given) | 0.0
O=C(C=Cc1ccc(CN(CCO)CCc2c[nH]c3ccccc23)cc1)NO | 1.0
C=CC(=O)Nc1cccc(Oc2nc(Nc3ccc(N4CCN(C)CC4)cc3)ncc2Cl)c1 | 0.0
O=C(NN=Cc1ccc(O)c(O)c1)c1cc2ccccc2cc1O | 0.0

Please look at the following compound next.
// outcome(item) with item = CC1(C)S[C@@H]2C(NC(=O)C(C(=O)O)c3ccccc3)C(=O)N2C1C(=O)O (stereo not given in full)
0.0
